- study system: Phosphatidylcholine:ceramide cholinephosphotransferase 2 (Homo sapiens, UniProt Q8NHU3)
- Sequence (Q8NHU3 whole entry): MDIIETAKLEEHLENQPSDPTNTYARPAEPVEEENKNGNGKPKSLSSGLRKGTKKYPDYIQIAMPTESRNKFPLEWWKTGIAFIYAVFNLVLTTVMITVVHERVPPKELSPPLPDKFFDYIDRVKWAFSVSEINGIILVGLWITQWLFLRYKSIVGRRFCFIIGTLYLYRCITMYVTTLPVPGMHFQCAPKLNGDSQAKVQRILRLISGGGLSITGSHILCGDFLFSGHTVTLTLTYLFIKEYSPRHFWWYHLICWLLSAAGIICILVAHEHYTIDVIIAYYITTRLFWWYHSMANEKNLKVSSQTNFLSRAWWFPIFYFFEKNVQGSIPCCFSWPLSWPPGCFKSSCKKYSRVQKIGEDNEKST
- test details: Inhibition of human recombinant C-terminal FLAG-tagged SMS2 expressed in Freestyle293 cell membrane using C14-phosphatidylcholineD72 and C17-ceramide pre-incubated for 60 mins followed by incubation with substrate for 30 mins measured by RapidFire/MS assay
pIC50: −log10 of the molar value.
Would you mind labelling by pIC50? At or over 6 is criterion met, under is criterion not met.

// known answers, use as guide
# compound, study system, class name
measured = [
    ("CCCOc1c(C(=O)N(C)Cc2cc(C(F)(F)F)cc(C(F)(F)F)c2)c(=O)n(C)c2ccccc12", "Phosphatidylcholine:ceramide cholinephosphotransferase 2 (Homo sapiens, UniProt Q8NHU3)", "criterion not met"),
    ("CN(Cc1cc(C(F)(F)F)cc(C(F)(F)F)c1)C(=O)c1c(N2CCCCC2)c2ccccc2n(C)c1=O", "Phosphatidylcholine:ceramide cholinephosphotransferase 2 (Homo sapiens, UniProt Q8NHU3)", "criterion not met"),
    ("COc1cc(CN(C)C(=O)c2c(OCCCC3CCN(C(=O)OC(C)(C)C)CC3)c3cccnc3n(C)c2=O)cc(OC)c1", "Phosphatidylcholine:ceramide cholinephosphotransferase 2 (Homo sapiens, UniProt Q8NHU3)", "criterion met"),
    ("COc1cc(CN(C)C(=O)c2c(OCCCC3CCN(C(=O)OC(C)(C)C)CC3)c3ccccc3n(C)c2=O)cc(OC)c1", "Phosphatidylcholine:ceramide cholinephosphotransferase 2 (Homo sapiens, UniProt Q8NHU3)", "criterion met"),
    ("COc1cc(CN(C)C(=O)c2c(OCCCC3CCN(C(=O)OC4(C)CC4)CC3)c3cccnc3n(C)c2=O)cc(C(F)(F)F)c1", "Phosphatidylcholine:ceramide cholinephosphotransferase 2 (Homo sapiens, UniProt Q8NHU3)", "criterion met"),
    ("CN(Cc1cc(C(F)(F)F)cc(C(F)(F)F)c1)C(=O)c1c(N2CCC(OCc3ccccc3)C2)c2ccccc2n(C)c1=O (centres undefined)", "Phosphatidylcholine:ceramide cholinephosphotransferase 2 (Homo sapiens, UniProt Q8NHU3)", "criterion met"),
    ("CN(Cc1cc(C(F)(F)F)cc(C(F)(F)F)c1)C(=O)c1c(OCCCc2ccccc2)c2ccccc2n(C)c1=O", "Phosphatidylcholine:ceramide cholinephosphotransferase 2 (Homo sapiens, UniProt Q8NHU3)", "criterion met"),
    ("CN(Cc1cc(C(F)(F)F)cc(C(F)(F)F)c1)C(=O)c1c(OCCCC2CCN(C(=O)OC(C)(C)C)CC2)c2ccccc2n(C)c1=O", "Phosphatidylcholine:ceramide cholinephosphotransferase 2 (Homo sapiens, UniProt Q8NHU3)", "criterion met"),
]

From here, focus on the item given below.
Check if pIC50 >= 6 (inclusive). Item: "CN(Cc1cc(C(F)(F)F)cc(C(F)(F)F)c1)C(=O)c1c(OCCCC2CCCCC2)c2ccccc2n(C)c1=O"
criterion met
